# tgt: Steroidogenic factor 1 (Homo sapiens) (UniProt Q13285)
# Sequence (Q13285 whole entry, looked up, the tested form may be a part): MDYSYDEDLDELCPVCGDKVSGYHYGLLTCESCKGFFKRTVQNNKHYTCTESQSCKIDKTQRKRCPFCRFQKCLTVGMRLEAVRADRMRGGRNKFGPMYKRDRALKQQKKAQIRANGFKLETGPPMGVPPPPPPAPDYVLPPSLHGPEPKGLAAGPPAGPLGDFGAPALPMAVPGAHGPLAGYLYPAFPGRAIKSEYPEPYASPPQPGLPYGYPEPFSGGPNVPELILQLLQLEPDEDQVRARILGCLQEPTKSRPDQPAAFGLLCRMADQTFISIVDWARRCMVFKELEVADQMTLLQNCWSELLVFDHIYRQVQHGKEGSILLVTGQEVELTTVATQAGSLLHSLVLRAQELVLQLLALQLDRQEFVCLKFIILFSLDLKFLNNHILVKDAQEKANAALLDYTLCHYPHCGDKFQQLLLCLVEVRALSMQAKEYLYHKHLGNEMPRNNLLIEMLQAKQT
# protocol_notes: SF-1 inhibitor potency, dose response, cell-based, CHO-K1, Gal4-SF-1 LBD, luciferase luminescence (AID 600)
# recorded_conditions: CHO-K1 Gal4-SF-1 LBD luciferase reporter
Activity calls are given as the source filed them.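 How the source made its calls: active means IC50 at or below 10 micromolar; inactive means IC50 above 10 micromolar.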
Returns: one label drawn from active, inactive

Please review the entries below; each comes with its answer.
| compound | cat |
| --- | --- |
| CCN(CC)c1ccc2c(c1)OC(N)=C(C#N)C2c1cccnc1 (stereo unspecified) | inactive |
| O=C(/C=C\Nc1ccccn1)c1ccc(Cl)cc1 | active |
| CSC1=C(C#N)C(c2ccc(Cl)cc2)C2=C(CC(C)(C)CC2=O)N1 (stereo unspecified) | inactive |

Please state the recorded outcome for this compound: COC(=O)C1=C(CN2CCCc3ccccc32)NC(=O)NC1c1ccc(F)cc1 (stereo unspecified)
active

Please state the recorded outcome for this compound: CC(=O)CC1OC(=O)C(Br)=C1NCc1ccccc1 (stereo unspecified)
inactive
